Parameter: viability, T/C. Scope: all listed entries.
# System: HSSY-II complex spheroid growth, percent test/control
# assay.name: Anticancer human tumor HSSY-II cell line growth inhibition [Asc];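 note: spheroids exposed to drug for 7 days before reading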
# applied.conditions: second compound 3 µM; first compound 0.00316 µM; active compounds read low
Express your answer in %, writing the number without its unit.

// worked examples, viability, T/C included
The molecule O=C(c1ccc(F)c(F)c1Nc1ccc(I)cc1F)N1CC(O)([C@@H]2CCCCN2)C1 + CCN1C(C(=O)NC23CCC(C(=O)O)(CC2)CC3)C(c2cccc(Cl)c2F)C2(C(=O)Nc3cc(Cl)ccc32)C12CCCCC2 showed viability, T/C equal to 2.22

The molecule CCN1CCN(Cc2ccc(Nc3ncc(F)c(-c4cc(F)c5nc(C)n(C(C)C)c5c4)n3)nc2)CC1 + CCN1C(C(=O)NC23CCC(C(=O)O)(CC2)CC3)C(c2cccc(Cl)c2F)C2(C(=O)Nc3cc(Cl)ccc32)C12CCCCC2 showed viability, T/C equal to 2.42

The molecule NC1CCC(NC2CC2c2ccccc2)CC1 (stereo unspecified) + CCN1C(C(=O)NC23CCC(C(=O)O)(CC2)CC3)C(c2cccc(Cl)c2F)C2(C(=O)Nc3cc(Cl)ccc32)C12CCCCC2 showed viability, T/C equal to 1.94

The molecule Cn1ncnc1[C@H]1c2n[nH]c(=O)c3cc(F)cc(c23)N[C@@H]1c1ccc(F)cc1 + CCN1C(C(=O)NC23CCC(C(=O)O)(CC2)CC3)C(c2cccc(Cl)c2F)C2(C(=O)Nc3cc(Cl)ccc32)C12CCCCC2 showed viability, T/C equal to 4.02

The molecule CNC(C)C(=O)NC1CN(S(=O)(=O)c2cccc(S(=O)(=O)N3CCC4CCC(C(=O)NC(c5ccccc5)c5ccccc5)N4C(=O)C(NC(=O)C(C)NC)C3)c2)CCC2CCC(C(=O)NC(c3ccccc3)c3ccccc3)N2C1=O (stereo unspecified) + CCN1C(C(=O)NC23CCC(C(=O)O)(CC2)CC3)C(c2cccc(Cl)c2F)C2(C(=O)Nc3cc(Cl)ccc32)C12CCCCC2 showed viability, T/C equal to 0.64

---
The molecule COc1c(OCCCN2CCOCC2)ccc2c3n(c(=NC(=O)c4cnc(N)nc4)nc12)CCN3 + CCN1C(C(=O)NC23CCC(C(=O)O)(CC2)CC3)C(c2cccc(Cl)c2F)C2(C(=O)Nc3cc(Cl)ccc32)C12CCCCC2 showed viability, T/C equal to 1.52
